These data points were gathered from patent US20210054097A1.

- studySystem: T1, FX activation peptide 12-mer SGEAPDSITWKP (human)
- T1 peptide: SGEAPDSITWKP-biotin
- assayExplanation: peptide ELISA
Ends that are not written are not given here.
reportedProperty: ELISA signal relative to background
Kindly provide the number alone.

Here are 5 binders together with their reported answers.
Nb 730C03 (VHH, monovalent Nanobody; also called Nb 730003; not shown: C-terminal FLAG3 and HIS6 tag) VHH: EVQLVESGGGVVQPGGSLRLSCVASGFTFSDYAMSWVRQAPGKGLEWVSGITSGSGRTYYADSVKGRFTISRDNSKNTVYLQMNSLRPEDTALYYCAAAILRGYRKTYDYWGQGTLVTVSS: 1.18
Nb 701B09 (VHH, monovalent Nanobody; also called Nb 701609; not shown: C-terminal FLAG3 and HIS6 tag) VHH: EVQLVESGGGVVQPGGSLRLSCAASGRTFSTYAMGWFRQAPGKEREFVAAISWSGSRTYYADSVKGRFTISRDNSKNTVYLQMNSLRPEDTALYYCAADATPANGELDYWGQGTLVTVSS: 0.84
Nb 702C12 (VHH, monovalent Nanobody; not shown: C-terminal FLAG3 and HIS6 tag) VHH: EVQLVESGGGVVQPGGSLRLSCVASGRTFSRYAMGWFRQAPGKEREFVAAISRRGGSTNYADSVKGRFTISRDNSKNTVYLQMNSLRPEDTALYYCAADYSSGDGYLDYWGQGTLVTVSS: 0.88
Nb 501A02 (VHH, monovalent control Nanobody; also called control Nanobody; not shown: C-terminal FLAG3 and HIS6 tag) VHH: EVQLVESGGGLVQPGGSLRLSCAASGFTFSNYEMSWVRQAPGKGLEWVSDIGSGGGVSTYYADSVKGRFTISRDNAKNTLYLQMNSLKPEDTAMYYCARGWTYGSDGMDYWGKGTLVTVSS: 0.76
Nb 701D07 (VHH, monovalent Nanobody; not shown: C-terminal FLAG3 and HIS6 tag) VHH: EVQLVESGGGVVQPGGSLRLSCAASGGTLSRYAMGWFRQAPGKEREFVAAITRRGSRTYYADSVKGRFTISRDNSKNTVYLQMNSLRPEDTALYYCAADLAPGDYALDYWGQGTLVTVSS: 0.78

Output measured ELISA signal relative to background for this item: Nb 729A04 (VHH, monovalent Nanobody; not shown: C-terminal FLAG3 and HIS6 tag) VHH: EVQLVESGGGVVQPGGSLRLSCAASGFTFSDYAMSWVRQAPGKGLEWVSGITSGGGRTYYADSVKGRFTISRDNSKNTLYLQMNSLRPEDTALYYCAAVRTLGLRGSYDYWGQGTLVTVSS
0.98

Output measured ELISA signal relative to background for this item: Nb 701C06 (VHH, monovalent Nanobody; not shown: C-terminal FLAG3 and HIS6 tag) VHH: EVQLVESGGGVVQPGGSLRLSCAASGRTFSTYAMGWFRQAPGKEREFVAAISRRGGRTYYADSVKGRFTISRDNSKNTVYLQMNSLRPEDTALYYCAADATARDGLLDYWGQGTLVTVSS
0.88

Output measured ELISA signal relative to background for this item: Nb 729C08 (VHH, monovalent Nanobody; also called Nb 729008; not shown: C-terminal FLAG3 and HIS6 tag) VHH: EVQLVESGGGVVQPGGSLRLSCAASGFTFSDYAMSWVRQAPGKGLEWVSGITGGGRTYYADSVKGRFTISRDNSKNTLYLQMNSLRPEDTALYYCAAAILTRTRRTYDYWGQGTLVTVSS
1.07
